- TARGET_OR_TEST_SYSTEM: T1, Human IFNβ (mature human interferon beta) (human, UniProt P01574 22-187)
- T1 construct: Recombinant human IFNβ (Peprotech for SPR); In some functional assays it is endogenous IFNβ secreted by primary human cells; also called hIFN-β; recombinant human IFNβ
- T1 sequence (P01574 22-187): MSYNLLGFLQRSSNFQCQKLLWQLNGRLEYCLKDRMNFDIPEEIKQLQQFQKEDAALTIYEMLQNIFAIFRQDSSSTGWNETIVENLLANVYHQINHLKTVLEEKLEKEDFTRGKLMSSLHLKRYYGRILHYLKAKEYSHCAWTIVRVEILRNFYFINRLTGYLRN
- EXPERIMENTAL_DETAILS: Octet (BLI) response rank; method not described
QUANTITY: Response rank (Octet) (rank)
Provide only the numeric value, understood in rank.

Response rank (Octet) measured on CTI-AF20 (antibody, human IgG1, kappa, V domains shown) VH: QVQLVQSGAEVKKPGSSVKVSCKASGYTFSRYWMHWVRQAPGQGLEWMGHIDPSDSYTYYNQKFKGRVTITADESTSTAYMELSSLRSEDTAVYYCARWDYGNLLFEYWGQGTLVTVSS VL: DIQMTQSPSSLSASVGDRVTITCRTSQDISSYLNWYQQKPGKAFKLLIYTTSRLRSGVPSRFSGSGSGTDFTLTISSLQPEDFATYYCQQGIVLPITFGGGTKVEIKR = 8

Response rank (Octet) measured on CTI-AF9 (antibody, human IgG1, kappa, V domains shown) VH: QVQLVQSGAEVKKPGSSVKVSCKASGYTFSRYWMHWVRQAPGQGLEWMGHIDPSDSYTYYNQKFKGRVTITADESTSTAYMELSSLRSEDTAVYYCARWDYGNLLFEYWGQGTLVTVSS VL: DIQMTQSPSSLSASVGDRVTITCRTSQDISNYLNWYQQKPGKAFKLLIFSTSRLHSGVPSRFSGSGSGTDFTLTISSLQPEDFATYYCQQSTILPLTFGGGTKVEIKR = 12

Response rank (Octet) measured on CTI-AF15 (antibody, human IgG1, kappa, V domains shown) VH: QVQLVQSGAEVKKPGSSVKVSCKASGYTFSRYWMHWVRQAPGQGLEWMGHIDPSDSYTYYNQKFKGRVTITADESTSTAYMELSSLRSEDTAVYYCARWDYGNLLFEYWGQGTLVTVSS VL: DIQMTQSPSSLSASVGDRVTITCRTSQDISSYLNWYQQKPGKAFKLLIYSTSRLHSGVPSRFSGSGSGTDFTLTISSLQPEDFATYYCQQGIILPITFGGGTKVEIKR = 3

Response rank (Octet) measured on CTI-AF8 (antibody, human IgG1, kappa, V domains shown) VH: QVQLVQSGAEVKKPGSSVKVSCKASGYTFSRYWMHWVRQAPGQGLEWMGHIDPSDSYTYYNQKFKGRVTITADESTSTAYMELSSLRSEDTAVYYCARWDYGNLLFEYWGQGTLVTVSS VL: DIQMTQSPSSLSASVGDRVTITCRTSQDIGNYLNWYQQKPGKAFKLLIYSTSRLHSGVPSRFSGSGSGTDFTLTISSLQPEDFATYYCQQSTILPLTFGGGTKVEIKR = 6

Response rank (Octet) measured on CTI-AF14 (antibody, human IgG1, kappa, V domains shown) VH: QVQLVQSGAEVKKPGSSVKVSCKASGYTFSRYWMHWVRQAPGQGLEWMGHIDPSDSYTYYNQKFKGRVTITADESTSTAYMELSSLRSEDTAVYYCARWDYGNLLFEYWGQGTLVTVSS VL: DIQMTQSPSSLSASVGDRVTITCRTSQDISNYLNWYQQKPGKAFKLLIFSTSRLHSGVPSRFSGSGSGTDFTLTISSLQPEDFATYYCQQGIILPITFGGGTKVEIKR = 7

Response rank (Octet) measured on CTI-AF10 (antibody, human IgG1, kappa, V domains shown) VH: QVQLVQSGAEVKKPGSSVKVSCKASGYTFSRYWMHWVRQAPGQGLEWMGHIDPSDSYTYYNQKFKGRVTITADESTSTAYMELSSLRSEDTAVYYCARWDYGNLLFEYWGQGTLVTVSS VL: DIQMTQSPSSLSASVGDRVTITCRTSQDISSYLNWYQQKPGKAFKLLIYSTSRLHSGVPSRFSGSGSGTDFTLTISSLQPEDFATYYCQQSTILPLTFGGGTKVEIKR = 5

Response rank (Octet) measured on CTI-AF4 (antibody, human IgG1, kappa, V domains shown) VH: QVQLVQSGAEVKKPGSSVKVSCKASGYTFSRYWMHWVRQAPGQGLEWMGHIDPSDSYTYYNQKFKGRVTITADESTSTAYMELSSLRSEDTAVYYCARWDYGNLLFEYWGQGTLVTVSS VL: DIQMTQSPSSLSASVGDRVTITCRTSQDISSYLNWYQQKPGKAFKLLIYSTSRLHSGVPSRFSGSGSGTDFTLTISSLQPEDFATYYCQQGIVLPITFGGGTKVEIKR = 4
